target: STING (Homo sapiens, UniProt Q86WV6, G230A/H232R/R293Q/R71H); construct: host or cells: THP-1 and THP-1 Lucia ISG cells; test: Phosphorylation of IRF3: THP-1 cell ELISA; assay type: cell-based; conditions: THP-1 cells, 3 hours incubation, phospho-IRF3 ELISA; read-out: THP-1 CELL P-IRF3 EC50
Sequence (Q86WV6 whole entry R71H/G230A/H232R/R293Q): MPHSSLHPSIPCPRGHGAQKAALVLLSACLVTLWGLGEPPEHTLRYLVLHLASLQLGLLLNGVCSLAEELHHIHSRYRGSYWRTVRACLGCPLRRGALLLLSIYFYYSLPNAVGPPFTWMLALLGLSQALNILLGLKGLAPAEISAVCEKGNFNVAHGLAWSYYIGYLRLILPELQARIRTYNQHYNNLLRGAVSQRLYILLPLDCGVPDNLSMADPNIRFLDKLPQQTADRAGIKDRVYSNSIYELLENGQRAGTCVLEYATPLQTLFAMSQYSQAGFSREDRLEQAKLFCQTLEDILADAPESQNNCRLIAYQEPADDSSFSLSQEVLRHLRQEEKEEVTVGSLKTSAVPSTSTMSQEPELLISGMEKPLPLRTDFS
pEC50: −log10 of the molar value. Counter-ions that a name gives are not always drawn.
pEC50: recorded values
measurement label: pEC50

1) CCn1nc(C)cc1-c1n[nH]c(-c2c(F)c(C(N)=O)cc3c2cnn3C)n1 [Example E01]; 6.19
2) Cc1cc(-c2n[nH]c(-c3nc(C(N)=O)cc4c3cnn4C)n2)n(CCC(=O)O)n1 [Example K02]; 5.18
3) Cc1cc(-c2nc(-c3nc(C(N)=O)cc4c3cnn4C)c(CN)s2)n(CCCO)n1 [Example AF01]; 5.23
4) CCn1nc(C)c(F)c1-c1nc(-c2cc(C(N)=O)cn3c(C)ncc23)n[nH]1 [Example F01]; 6.11
5) CCn1nc(C)cc1-c1nc(-c2nc(C(N)=O)cc3c2cnn3C)c(C(C)N)s1 (single isomer, unassigned) [Example W01]; 5.04
6) CCn1nc(C)c(O)c1-c1nc(-c2nc(C(N)=O)cc3c2cnn3C)c(CN)s1 [Example X01, formate]; 6.47
7) CCn1nc(C)cc1-c1nc(-c2nc(C(N)=O)cc3c2cnn3C)n(C)n1 [Example J01]; 6.28
8) CCn1nc(C)cc1-c1n[nH]c(-c2cc(C(N)=O)cc3c2cnn3CCN(C)CC(F)(F)F)n1 [Example D05, formic acid salt]; 4.69
9) CCn1nc(C)c(F)c1-c1nc(-c2nc(C(N)=O)cc3c2cnn3C)c(CN)s1 [Example S01]; 5.89
10) CCn1nc(C)cc1-c1nc(-c2nc(C(N)=O)cc3c2cnn3C)c(CN)o1 [Example T01]; 6.01
11) CCn1nc(C)cc1-c1c[nH]c(-c2cc(C(N)=O)cc3c2cnn3C)n1 [Example G01]; 5.19

====

EC50: recorded values
target: STING (Homo sapiens, UniProt Q86WV6, G230A/H232R/R293Q/R71H); construct: host or cells: THP-1 and THP-1 Lucia ISG cells; assay: Phosphorylation of IRF3: THP-1 cell ELISA; format: cell-based; conditions: THP-1 cells, 3 hours incubation, phospho-IRF3 ELISA; read-out: THP-1 CELL P-IRF3 EC50
measurement label: EC50 (nM)

1. CCn1cc(C)c(O)c1-c1nc(-c2nc(C(N)=O)cc3c2cnn3C)cs1; 240
2. Cc1cc(-c2n[nH]c(-c3cc(C(N)=O)cc4c3cnn4C)n2)n(CCC(=O)O)n1; 10900
3. CCn1nc(C)c(F)c1-c1nc(-c2cc(C(N)=O)cc3c2cnn3CCN2CCOCC2)n[nH]1; 31600
4. CCn1nc(C)c(O)c1-c1n[nH]c(-c2nc(C(N)=O)cc3c2cnn3C)n1; 20
5. CCn1nc(C)c(F)c1-c1n[nH]c(-c2nc(C(N)=O)cc3c2cnn3C)n1; 140
6. CCn1nc(C)c(F)c1-c1nc(-c2cc(C(N)=O)cc3c2cnn3CCCN2CCOCC2)n[nH]1; 96700
7. CCn1nc(C)c(Cl)c1-c1nc(-c2cc(C(N)=O)cc3c2cnn3C)n[nH]1; 250
8. Cc1nn(CCCO)c(-c2nc(-c3nc(C(N)=O)cc4c3cnn4C)c(CN)s2)c1O; 2260
9. CCn1nc(C)c(O)c1-c1nc(-c2nc(C(N)=O)cc3c2cnn3C)co1; 200
10. CCn1nc(C)cc1-c1n[nH]c(-c2cc(C(N)=O)cc3c(C)n[nH]c23)n1; 3090
11. Cc1nn(CCO)c(-c2nnc(-c3nc(C(N)=O)cc4c3cnn4C)[nH]2)c1O; 890
